- experimental system: HIV-1 JR-CSF Env P299A (HIV-1 JR-CSF) (UniProt P20871)
- assay procedure: cell-based or functional assay

- binder: "PGT-131 (antibody, V domains shown) VH: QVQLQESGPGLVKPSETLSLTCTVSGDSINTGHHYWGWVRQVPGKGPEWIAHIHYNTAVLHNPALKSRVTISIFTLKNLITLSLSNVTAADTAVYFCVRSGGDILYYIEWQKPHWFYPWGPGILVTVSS VL: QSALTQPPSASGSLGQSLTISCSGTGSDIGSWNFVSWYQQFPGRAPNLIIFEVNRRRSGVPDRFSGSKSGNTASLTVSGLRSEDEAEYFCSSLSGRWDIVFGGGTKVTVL"
  Fold IC50 increase relative to wild-type [fold]: 2
- binder: "PGT-125 (antibody, V domains shown) VH: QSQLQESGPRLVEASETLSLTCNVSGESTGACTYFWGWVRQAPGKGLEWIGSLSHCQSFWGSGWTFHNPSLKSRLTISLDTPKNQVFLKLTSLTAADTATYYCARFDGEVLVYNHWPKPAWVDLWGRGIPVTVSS VL: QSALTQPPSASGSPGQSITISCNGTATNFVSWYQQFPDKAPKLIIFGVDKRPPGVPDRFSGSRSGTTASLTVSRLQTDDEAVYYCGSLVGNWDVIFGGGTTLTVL"
  Fold IC50 increase relative to wild-type [fold]: 0.2
- binder: "PGT-135 (antibody, V domains shown) VH: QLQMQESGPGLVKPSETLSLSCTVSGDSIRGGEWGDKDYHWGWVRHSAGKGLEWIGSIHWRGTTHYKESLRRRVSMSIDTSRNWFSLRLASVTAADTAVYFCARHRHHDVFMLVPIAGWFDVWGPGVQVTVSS VL: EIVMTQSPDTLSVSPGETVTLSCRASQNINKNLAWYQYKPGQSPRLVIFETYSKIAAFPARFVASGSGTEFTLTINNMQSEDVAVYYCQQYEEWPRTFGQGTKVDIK"
  Fold IC50 increase relative to wild-type [fold]: 0.36
